tested on: HBV genome in HEK293T cells transduced with a lentiviral vector; test: Base editing efficiency in Hek293-lentiHBV system (PCR amplicons sequenced on MiSeq); type: cell-based, Hepatitis B virus; settings: average of 3, base editor Cas12b-ABE, plasmid transfection, four days
Strand notation (5' to 3'): a small letter for the sugar, then the base; units joined by * are phosphorothioate-linked, units joined directly phosphodiester-linked; [ ] holds rarer units or linkages, { } end groups; capitals alone tell only the bases. m = 2'-O-methyl; r = 2'-OH (RNA)
property-measured: Average Editing Efficiency (%)
Could you give me the number in %? Just the number is fine.

Examples from the recorded data:
• cas12b-124: guide RNA SEQ ID NO: 389 (nucleic acid) guide: mG*mU*mU*rCrUrGrUrCrUrUrUrUrGrGrUrCrArGrGrArCrArArCrCrGrUrCrUrArGrCrUrArUrArArGrUrGrCrUrGrCrArGrGrGrUrGrUrGrArGrArArArCrUrCrCrUrArUrUrGrCrUrGrGrArCrGrArUrGrUrCrUrCrUrUrArCrGrArGrGrCrArUrUrArGrCrArCrCrCrGrGrGrCrArArCrGrGrGrGrUrArArArGrGrU = 17.47
• cas12b-147: guide RNA SEQ ID NO: 386 (nucleic acid) guide: mG*mU*mU*rCrUrGrUrCrUrUrUrUrGrGrUrCrArGrGrArCrArArCrCrGrUrCrUrArGrCrUrArUrArArGrUrGrCrUrGrCrArGrGrGrUrGrUrGrArGrArArArCrUrCrCrUrArUrUrGrCrUrGrGrArCrGrArUrGrUrCrUrCrUrUrArCrGrArGrGrCrArUrUrArGrCrArCrGrArGrGrArCrArArArCrGrGrGrCrArArCrArUrA = 10.83

Could you now look at the following molecule, please?
Lookup: Fill in the blank: the reported Average Editing Efficiency (%) of cas12b-42: guide RNA SEQ ID NO: 384 (nucleic acid) guide: mG*mU*mU*rCrUrGrUrCrUrUrUrUrGrGrUrCrArGrGrArCrArArCrCrGrUrCrUrArGrCrUrArUrArArGrUrGrCrUrGrCrArGrGrGrUrGrUrGrArGrArArArCrUrCrCrUrArUrUrGrCrUrGrGrArCrGrArUrGrUrCrUrCrUrUrArCrGrArGrGrCrArUrUrArGrCrArCrGrGrArGrCrUrArCrUrGrUrGrGrArGrUrUrArCrU is ____.
Found: 28.99

The measured values listed here are drawn from patent US20240294914A1.
